Target: T1, purified recombinant IFNAR-1 extracellular fragment (human, UniProt P17181 28-436)
T1 construct: extracellular domain; also called soluble IFNAR-1; soluble IFNAR
T1 sequence (looked up): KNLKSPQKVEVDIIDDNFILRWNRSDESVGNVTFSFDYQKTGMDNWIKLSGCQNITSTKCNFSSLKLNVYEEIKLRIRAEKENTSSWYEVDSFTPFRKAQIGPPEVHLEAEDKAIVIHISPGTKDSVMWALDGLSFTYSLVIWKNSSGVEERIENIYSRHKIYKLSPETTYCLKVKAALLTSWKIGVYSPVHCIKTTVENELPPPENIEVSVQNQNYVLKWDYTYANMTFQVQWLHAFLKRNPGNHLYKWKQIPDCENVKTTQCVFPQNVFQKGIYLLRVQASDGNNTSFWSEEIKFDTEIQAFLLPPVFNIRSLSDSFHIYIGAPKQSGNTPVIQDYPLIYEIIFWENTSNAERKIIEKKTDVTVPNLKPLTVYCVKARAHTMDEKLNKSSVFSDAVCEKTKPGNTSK
Test: Biacore, maximal association on IFNAR-1 relative to M3K1
Reported metric: % activity relative to M3K1 (%)
Quick reminder: number only, in %, skip the unit.

Query string: Determine its reported % activity relative to M3K1: M3-4 (X = V) heavy chain with K1 light chain (antibody, V domains shown, Position counted within VH CDR3; also called M3-4 V) VH: EVQLLESGGGLVQPGGSLRLSCAFSGFTLSTSGMGIGWVRQAPGKGLEWVAHIWWDDDKYYNPSLKSRFTISRDTSKNTVYLQMNSLRAEDTAVYYCARNYYVYDAWFDYWGQGTLVTVS VL: DIQMTQSPSSLSASVGDRVTITCSASSSINSNHLHWYQQKPGKAPKLLIYRTSILASGVPSRFSGSGSGTSFTLTISSLQPEDFATYYCQQGSNIPFTFGQGTKVEIK
Result string: 122
